# tgt: recombinant PRL-1 (Homo sapiens)
# Construct: 6xHis (N, cleaved yes); made in house; host or cells: E. coli One Shot BL21 Star
# Sequence (Q93096 whole entry): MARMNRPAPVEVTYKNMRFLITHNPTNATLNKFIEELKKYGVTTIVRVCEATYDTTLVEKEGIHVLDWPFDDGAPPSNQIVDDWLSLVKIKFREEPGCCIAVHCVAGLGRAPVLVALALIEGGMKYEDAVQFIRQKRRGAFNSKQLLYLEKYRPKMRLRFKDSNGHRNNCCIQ
# methodNotes: In vitro phosphatase assay (DiFMUP hydrolysis), PRL-1; further: test concentration or dose not given here
# Assay type: biochemical
# conditionsUsed: FDA-approved drug screen; compared to DMSO
reportedProperty: % Phosphatase Activity (compared to DMSO) PRL-1 (%)
Hi! Could you send only the number? It should be in %, unit omitted.

compound: C[C@]12C=CC(=O)N[C@@H]1CC[C@@H]1[C@@H]2CC[C@]2(C)[C@@H](C(=O)Nc3cc(C(F)(F)F)ccc3C(F)(F)F)CC[C@@H]12 [Dutasteride]
quantitativeReadout: 94

INPUT: Could you please provide reported % Phosphatase Activity (compared to DMSO) PRL-1 for COc1ccccc1OCC(O)CN1CCN(CC(=O)Nc2c(C)cccc2C)CC1.Cl.Cl (stereo not drawn) [Ranolazine 2HCl] ? Thanks!
OUTPUT: 107

INPUT: Could you please provide reported % Phosphatase Activity (compared to DMSO) PRL-1 for CCC(=O)OCC(=O)[C@@]1(OC(=O)CC)[C@@H](C)C[C@H]2[C@@H]3CCC4=CC(=O)C=C[C@]4(C)[C@@]3(Cl)[C@@H](O)C[C@@]21C [Beclomethasone dipropionate] ? Thanks!
OUTPUT: 98

INPUT: Could you please provide reported % Phosphatase Activity (compared to DMSO) PRL-1 for CC[C@@H]1/C=C(\C)C[C@H](C)C[C@H](OC)[C@H]2O[C@@](O)(C(=O)C(=O)N3CCCC[C@H]3C(=O)O[C@H](/C(C)=C/[C@@H]3CC[C@H](Cl)[C@H](OC)C3)[C@H](C)[C@@H](O)CC1=O)[C@H](C)C[C@@H]2OC [Pimecrolimus] ? Thanks!
OUTPUT: 87

INPUT: Could you please provide reported % Phosphatase Activity (compared to DMSO) PRL-1 for OC[C@@H](O)[C@@H](O)[C@H](O)[C@H](O)CO [D-Mannitol] ? Thanks!
OUTPUT: 93

INPUT: Could you please provide reported % Phosphatase Activity (compared to DMSO) PRL-1 for CCCCCCCCCCC[C@@H](C[C@@H]1OC(=O)[C@H]1CCCCCC)OC(=O)[C@H](CC(C)C)NC=O [Orlistat] ? Thanks!
OUTPUT: 113
